molecular target: KDM5A (Homo sapiens, UniProt P29375); construct: Full length KDM5A enzyme was expressed and purified inhouse; made in house; assay: KDM5 enzyme assay, KDM5A HTRF (Example 463); assay type: biochemical; conditions: compounds of Examples 1-432; read-out: Example 463 Assay KDM5A HTRF IC50
Sequence (P29375 whole entry): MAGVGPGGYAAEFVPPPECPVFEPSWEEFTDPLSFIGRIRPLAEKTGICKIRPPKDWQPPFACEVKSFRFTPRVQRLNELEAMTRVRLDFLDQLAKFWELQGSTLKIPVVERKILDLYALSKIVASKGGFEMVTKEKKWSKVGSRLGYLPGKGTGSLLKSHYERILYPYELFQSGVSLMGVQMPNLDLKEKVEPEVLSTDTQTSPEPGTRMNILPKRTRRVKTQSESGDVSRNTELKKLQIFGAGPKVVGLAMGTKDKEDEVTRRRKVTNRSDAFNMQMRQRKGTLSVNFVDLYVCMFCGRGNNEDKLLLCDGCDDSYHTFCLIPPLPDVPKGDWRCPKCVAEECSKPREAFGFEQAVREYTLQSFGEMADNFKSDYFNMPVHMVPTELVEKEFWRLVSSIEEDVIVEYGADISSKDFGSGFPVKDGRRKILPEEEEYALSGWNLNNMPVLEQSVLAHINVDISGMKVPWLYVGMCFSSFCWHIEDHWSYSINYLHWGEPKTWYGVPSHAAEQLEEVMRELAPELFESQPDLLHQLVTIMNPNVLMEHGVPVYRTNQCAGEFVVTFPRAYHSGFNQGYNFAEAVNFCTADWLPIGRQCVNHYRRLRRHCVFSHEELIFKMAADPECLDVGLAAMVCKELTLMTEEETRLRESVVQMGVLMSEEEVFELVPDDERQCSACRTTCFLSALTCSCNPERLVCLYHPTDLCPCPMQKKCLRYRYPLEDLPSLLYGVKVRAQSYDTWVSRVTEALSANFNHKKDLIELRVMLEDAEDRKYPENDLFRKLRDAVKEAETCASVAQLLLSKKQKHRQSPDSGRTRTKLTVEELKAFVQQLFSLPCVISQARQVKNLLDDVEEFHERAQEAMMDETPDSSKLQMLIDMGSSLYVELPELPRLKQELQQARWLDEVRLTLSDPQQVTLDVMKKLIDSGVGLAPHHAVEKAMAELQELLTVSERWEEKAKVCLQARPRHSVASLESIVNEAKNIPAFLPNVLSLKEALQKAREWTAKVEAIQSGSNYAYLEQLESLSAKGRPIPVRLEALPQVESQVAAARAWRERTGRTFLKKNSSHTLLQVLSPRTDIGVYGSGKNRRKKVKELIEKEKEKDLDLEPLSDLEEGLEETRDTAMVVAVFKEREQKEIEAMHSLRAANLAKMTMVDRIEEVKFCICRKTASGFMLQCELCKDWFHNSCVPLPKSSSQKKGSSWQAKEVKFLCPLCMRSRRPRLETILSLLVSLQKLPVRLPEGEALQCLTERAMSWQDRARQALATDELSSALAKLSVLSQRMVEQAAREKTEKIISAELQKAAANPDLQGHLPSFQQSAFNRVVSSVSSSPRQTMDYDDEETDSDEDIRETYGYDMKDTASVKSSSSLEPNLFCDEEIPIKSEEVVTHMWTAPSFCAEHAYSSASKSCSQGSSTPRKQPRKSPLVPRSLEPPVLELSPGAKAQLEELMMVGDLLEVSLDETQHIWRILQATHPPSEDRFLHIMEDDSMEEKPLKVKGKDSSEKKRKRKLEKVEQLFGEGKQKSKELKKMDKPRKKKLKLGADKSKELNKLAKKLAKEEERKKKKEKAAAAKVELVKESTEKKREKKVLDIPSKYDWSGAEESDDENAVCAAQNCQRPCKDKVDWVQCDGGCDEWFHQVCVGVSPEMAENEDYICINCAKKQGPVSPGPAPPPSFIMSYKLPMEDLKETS
Each record's IC50 is compared with zone 1: < 10 nM; zone 2: ≥ 10 nM and < 40 nM; zone 3: ≥ 40 nM to give its class.

Some entries whose results are on file:
smiles_str=C=CC(=O)N1CC(n2cc(-c3[nH]c4c(C#N)cnn4c(=O)c3C(C)C)cn2)C1 target_desc="KDM5A (Homo sapiens, UniProt P29375)" discrete_label="zone 2"
smiles_str=COC(=O)c1cc(-c2[nH]c3c(C#N)cnn3c(=O)c2C(C)C)ccc1Cl target_desc="KDM5A (Homo sapiens, UniProt P29375)" discrete_label="zone 2"
smiles_str=CC(C)c1c(-c2cccc(-c3cn[nH]c3)c2)[nH]c2c(C#N)cnn2c1=O target_desc="KDM5A (Homo sapiens, UniProt P29375)" discrete_label="zone 2"
smiles_str=CNS(=O)(=O)c1cccc(-c2[nH]c3c(C#N)cnn3c(=O)c2C(C)C)c1 target_desc="KDM5A (Homo sapiens, UniProt P29375)" discrete_label="zone 2"

Query: Which band does `Cc1ccc(-c2[nH]c3c(C#N)cnn3c(=O)c2C(C)C)o1` fall in?
Reply: zone 1

Query: Which IC50 category applies to `CC(C)c1c(-c2ccc(NS(C)(=O)=O)cc2)[nH]c2c(C#N)cnn2c1=O` here?
Reply: zone 2

Query: Assign a category based on measured IC50 for `COc1cccc(Cn2cc(-c3[nH]c4c(C#N)cnn4c(=O)c3C(C)C)cn2)c1` and give only the class name.
Reply: zone 1

Query: Lab note: sort `CC(C)c1c(-c2cccc(C(F)(F)F)c2)[nH]c2c(C#N)cnn2c1=O` into the matching IC50 band.
Reply: zone 2

Query: Place this compound in its band: `CC(C)c1c(C2=CCCNC2)[nH]c2c(C#N)cnn2c1=O`
Reply: zone 3

Query: Class? Entry: `CC(C)c1c(-c2cnn(C(C)C)c2F)[nH]c2c(C#N)cnn2c1=O`
Reply: zone 1

Query: Which class is correct for the following compound? `CC(C)c1c(-c2cccs2)n(C)c2c(C#N)cnn2c1=O`
Reply: zone 3

Query: Would you mind sorting `Cc1cc(-c2[nH]c3c(C#N)cnn3c(=O)c2C(C)C)ccc1C#N` into the appropriate category?
Reply: zone 2

====

Molecular target: GASC1 (Homo sapiens)
Construct: 6×His tagged recombinant GASC1 (N 350aa) was purified from E. Coli BL21(DE3); 6xHis
Sequence (Q9H3R0 1-350 limits assumed): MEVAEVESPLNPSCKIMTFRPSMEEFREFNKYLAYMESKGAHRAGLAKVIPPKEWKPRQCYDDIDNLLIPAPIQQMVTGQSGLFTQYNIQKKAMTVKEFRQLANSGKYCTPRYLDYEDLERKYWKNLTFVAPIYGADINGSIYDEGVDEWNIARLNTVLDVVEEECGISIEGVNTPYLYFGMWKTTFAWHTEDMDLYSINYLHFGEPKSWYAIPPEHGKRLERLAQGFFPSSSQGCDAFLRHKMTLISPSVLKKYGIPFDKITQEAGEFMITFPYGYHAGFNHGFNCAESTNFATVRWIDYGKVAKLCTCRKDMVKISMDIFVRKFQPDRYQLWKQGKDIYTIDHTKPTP
Experiment: GASC1 demethylation assay on H3K9Me3 peptide (RapidFire HT-MS)
Conditions: read-out: GASC1 Inhibition
observation.type: IC50

compound=CCc1c(C)[nH]c2c(C#N)c(C)nn2c1=O observation_type=IC50 recorded_measurement="1 to 10 µM"

IC50 value, target or system GASC1 (Homo sapiens), for `C=CCc1c(COC)[nH]c2c(C#N)cnn2c1=O` : ≤ 1 µM

Entry `COCCc1c(C)[nH]c2c(C#N)cnn2c1=O` under GASC1 (Homo sapiens) had IC50 of ≥ 50 µM

Test item `CCCc1c(COC)[nH]c2c(C#N)cnn2c1=O` ; GASC1 (Homo sapiens); reported IC50 was 1 to 10 µM

Lab note: compound `CCCc1c(CO)[nH]c2c(C#N)cnn2c1=O` tested on GASC1 (Homo sapiens); recorded IC50 was 1 to 10 µM

The reported GASC1 (Homo sapiens) IC50 of `CCc1c(CCCO)[nH]c2c(C#N)cnn2c1=O` is ≤ 1 µM
